# assay-procedure: Scavenging of peroxyl radicals in vitro (thermal decomposition of ABAP, luminol chemiluminescence)
# Type: biochemical
# condition-details: Series 1; pure compounds
parameter: Stoichiometric factor (peroxyl radicals scavenged per mole of compound) (mole/mole)
Write it as a number; the unit mole/mole goes unstated.

// below: answered molecules
Cc1c(C)c2c(c(C)c1O)CCC(C)(C(=O)O)O2 (stereo not drawn) [Trolox, reference compound] | 2.0
COc1cc(C[C@H]2CO[C@H](c3ccc(O)c(OC)c3)[C@H]2CO)ccc1O | 1.0
COc1cc(C[C@H]2COC(=O)[C@@H]2Cc2ccc(O)c(OC)c2)ccc1O | 1.0

Report Stoichiometric factor (peroxyl radicals scavenged per mole of compound) for COc1cc(C[C@H]2C(=O)OC[C@@H]2[C@H](O)c2ccc(O)c(OC)c2)ccc1O [Hydroxymatairesinol] please.
2.1

Note, next up: COc1cc(C[C@@H](CO)[C@H](CO)Cc2ccc(O)c(OC)c2)ccc1O
3.1

Note, next up: COc1cc(CC2COC(=O)C2(O)Cc2ccc(O)c(OC)c2)ccc1O (stereo not drawn)
2.2
